# credit: paper PMC7125129

Target: Tet(X4) (Escherichia coli, UniProt A0A3T0V9Y5)
recorded.metric: pIC50
Give bare numbers, as −log10 of the molar value.

pIC50 for Cc1cn([C@H]2C[C@H](N=[N+]=[N-])[C@@H](CO)O2)c(=O)[nH]c1=O [AZI, azidothymidine] ? 6.97
